# target-entity: Adenosine receptor A3 (Homo sapiens)
# test-name: Displacement of [3H]MRE-3008-F20 from human adenosine A3 receptor expressed in CHO cells at 10 uM after 120 mins by scintillation counting
experimental-readout: inhibition (%)
Give bare numbers, in %.

Answered examples (5):
Answer with the recorded inhibition of CCN(CC)Cc1c(-c2ccccc2)sc(N)c1C(=O)c1ccc(Cl)cc1 only.
9

Answer with the recorded inhibition of Nc1scc(CN2CCc3[nH]c4ccccc4c3C2)c1C(=O)c1ccc(Cl)cc1 only.
1

Answer with the recorded inhibition of CC(C)c1ccc(OCc2csc(N)c2C(=O)c2ccc(Cl)cc2)cc1 only.
9

Answer with the recorded inhibition of CN(Cc1csc(N)c1C(=O)c1ccc(Cl)cc1)c1ccc(Cl)cc1 only.
12

Answer with the recorded inhibition of Cc1ccc2c(c1)OC1(CCN(Cc3csc(N)c3C(=O)c3ccc(Cl)cc3)CC1)O2 only.
6

// for each compound below, give its inhibition
1. CN(Cc1ccccc1)Cc1c(-c2ccccc2)sc(N)c1C(=O)c1ccc(Cl)cc1
2. Nc1scc(CN2CCC3(CC2)Oc2ccccc2O3)c1C(=O)c1ccc(Cl)cc1

1: 6; 2: 5

// for each compound below, give its inhibition
1. CN(Cc1ccccc1)Cc1csc(N)c1C(=O)c1ccc(Cl)cc1
2. CCN(Cc1csc(N)c1C(=O)c1ccc(Cl)cc1)c1ccccc1
3. Nc1scc(CN2CCN3c4ccc(Cl)cc4CC3C2)c1C(=O)c1ccc(Cl)cc1 (stereo unspecified)
4. CCCCN(C)Cc1c(-c2ccccc2)sc(N)c1C(=O)c1ccc(Cl)cc1

1. 7
2. 11
3. 1
4. 5

// for each compound below, give its inhibition
1. Nc1scc(CN2CCc3[nH]c4ccc(Cl)cc4c3C2)c1C(=O)c1ccc(Cl)cc1
2. CC(C)N(Cc1c(-c2ccccc2)sc(N)c1C(=O)c1ccc(Cl)cc1)C(C)C
3. C=CCN(CC=C)Cc1c(-c2ccccc2)sc(N)c1C(=O)c1ccc(Cl)cc1
4. CCCN(CCC)Cc1csc(N)c1C(=O)c1ccc(Cl)cc1

[1, 11, 5, 5]

// for each compound below, give its inhibition
1. Cn1c2c(c3ccccc31)CN(Cc1csc(N)c1C(=O)c1ccc(Cl)cc1)CC2
2. Cc1ccc(OCc2csc(N)c2C(=O)c2ccc(Cl)cc2)cc1
3. CN(Cc1csc(N)c1C(=O)c1ccc(Cl)cc1)c1ccc(C(F)(F)F)cc1
4. Cc1ccc2c(c1)CC1CN(Cc3csc(N)c3C(=O)c3ccc(Cl)cc3)CCN21 (stereo unspecified)
5. CN(Cc1csc(N)c1C(=O)c1ccc(Cl)cc1)c1ccc(F)cc1
6. Nc1scc(CN2CCN3c4ccccc4CC3C2)c1C(=O)c1ccc(Cl)cc1 (stereo unspecified)

[2, 11, 4, 7, 4, 5]

----------
# target-entity: Adenosine receptor A1 (Homo sapiens)
# test-name: Allosteric enhancement of human adenosine A1 receptor expressed in CHO cells assessed as inhibition of CCPA-induced cAMP production at 100 nM after 10 mins
# Format: functional, cell-based
Exercise: state measured inhibition for each of the compounds provided.
Remember to quote the unit after the number.

Answer with the recorded inhibition of CCCN(CCC)Cc1c(-c2ccccc2)sc(N)c1C(=O)c1ccc(Cl)cc1 only.
29%

// for each compound below, give its inhibition
1. CN(C)Cc1c(-c2ccccc2)sc(N)c1C(=O)c1ccc(Cl)cc1
2. Nc1scc(CN2CCN3c4ccccc4CC3C2)c1C(=O)c1ccc(Cl)cc1 (centres undefined)
3. Nc1sc(-c2ccccc2)c(CN(C2CCCCC2)C2CCCCC2)c1C(=O)c1ccc(Cl)cc1
4. Cc1sc(N)c(C(=O)c2cccc(C(F)(F)F)c2)c1C
5. Nc1scc(CN2CCC3(CC2)Oc2ccccc2O3)c1C(=O)c1ccc(Cl)cc1
6. C=CCN(CC=C)Cc1c(-c2ccccc2)sc(N)c1C(=O)c1ccc(Cl)cc1
7. Nc1scc(CN2CCn3c(cc4ccccc43)C2)c1C(=O)c1ccc(Cl)cc1

["10%", "72%", "28%", "20%", "43%", "34%", "62%"]

----------
# target-entity: UniProt:P29274
# Sequence (P29274 whole entry): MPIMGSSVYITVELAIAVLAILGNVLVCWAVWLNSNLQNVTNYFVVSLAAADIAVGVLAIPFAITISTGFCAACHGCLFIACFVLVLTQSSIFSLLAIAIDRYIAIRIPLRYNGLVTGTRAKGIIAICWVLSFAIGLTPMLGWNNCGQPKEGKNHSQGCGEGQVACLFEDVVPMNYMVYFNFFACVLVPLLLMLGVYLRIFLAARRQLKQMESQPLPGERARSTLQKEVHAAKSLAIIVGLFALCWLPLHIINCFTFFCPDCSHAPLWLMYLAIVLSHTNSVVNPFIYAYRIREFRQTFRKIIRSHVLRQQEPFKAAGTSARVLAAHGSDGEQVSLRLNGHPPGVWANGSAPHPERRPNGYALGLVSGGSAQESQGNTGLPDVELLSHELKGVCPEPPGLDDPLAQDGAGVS
# test-name: Displacement of [3H]ZM 241385 from human adenosine A2A receptor expressed in CHO cells at 10 uM after 60 mins by scintillation counting
# Assay type: cell-based
experimental-readout: inhibition (%)
Answers are plain numbers, in %.

Answer with the recorded inhibition of CCCCN(C)Cc1c(-c2ccccc2)sc(N)c1C(=O)c1ccc(Cl)cc1 only.
1

Answer with the recorded inhibition of CN(Cc1ccccc1)Cc1csc(N)c1C(=O)c1ccc(Cl)cc1 only.
1

Answer with the recorded inhibition of C=CCN(CC=C)Cc1c(Br)sc(N)c1C(=O)c1ccc(Cl)cc1 only.
1

// for each molecule below, give its inhibition
1. Cn1c2c(c3cc(Cl)ccc31)CN(Cc1csc(N)c1C(=O)c1ccc(Cl)cc1)CC2
2. Cc1ccc2c(c1)CC1CN(Cc3csc(N)c3C(=O)c3ccc(Cl)cc3)CCN21 (stereo not given)

1. 0
2. 0

----------
Exercise: state measured inhibition for each of the compounds provided.
# target-entity: Adenosine receptor A1 (Homo sapiens)
# test-name: Allosteric enhancement of human adenosine A1 receptor expressed in CHO cells assessed as inhibition of forskolin-induced cAMP production at 10 uM after 10 mins
# Assay type: functional, cell-based
Remember to quote the unit after the number.

Answered examples (8):
Answer with the recorded inhibition of Cc1ccc(OCc2csc(N)c2C(=O)c2ccc(Cl)cc2)cc1 only.
11%

Answer with the recorded inhibition of C=CCN(CC=C)Cc1c(Br)sc(N)c1C(=O)c1ccc(Cl)cc1 only.
8%

Answer with the recorded inhibition of CCN(Cc1csc(N)c1C(=O)c1ccc(Cl)cc1)c1ccccc1 only.
19%

Answer with the recorded inhibition of CN(Cc1csc(N)c1C(=O)c1ccc(Cl)cc1)c1ccc(Cl)cc1 only.
22%

Answer with the recorded inhibition of Nc1scc(CN2CCN3c4ccccc4CC3C2)c1C(=O)c1ccc(Cl)cc1 (centres undefined) only.
71%

Answer with the recorded inhibition of C=CCN(CC=C)Cc1c(-c2ccccc2)sc(N)c1C(=O)c1ccc(Cl)cc1 only.
36%

Answer with the recorded inhibition of COc1ccc2c(c1)cc1n2CCN(Cc2csc(N)c2C(=O)c2ccc(Cl)cc2)C1 only.
43%

Answer with the recorded inhibition of CN(Cc1ccccc1)Cc1c(-c2ccccc2)sc(N)c1C(=O)c1ccc(Cl)cc1 only.
4%

// for each compound below, give its inhibition
1. CN(Cc1csc(N)c1C(=O)c1ccc(Cl)cc1)c1ccc(F)cc1
2. Nc1scc(CN2CCc3[nH]c4ccc(Cl)cc4c3C2)c1C(=O)c1ccc(Cl)cc1
3. Nc1sc(-c2ccccc2)c(CN(C2CCCCC2)C2CCCCC2)c1C(=O)c1ccc(Cl)cc1
4. Cc1ccc2c(c1)CC1CN(Cc3csc(N)c3C(=O)c3ccc(Cl)cc3)CCN21 (centres undefined)
5. CC(C)(C)c1ccc2c(c1)OC1(CCN(Cc3csc(N)c3C(=O)c3ccc(Cl)cc3)CC1)O2
6. CC(C)N(Cc1csc(N)c1C(=O)c1ccc(Cl)cc1)C(C)C

1. 28%
2. 8%
3. 31%
4. 3%
5. 51%
6. 4%

----------
# target-entity: Adenosine receptor A1 (Homo sapiens) (UniProt P30542)
# Sequence (P30542 whole entry): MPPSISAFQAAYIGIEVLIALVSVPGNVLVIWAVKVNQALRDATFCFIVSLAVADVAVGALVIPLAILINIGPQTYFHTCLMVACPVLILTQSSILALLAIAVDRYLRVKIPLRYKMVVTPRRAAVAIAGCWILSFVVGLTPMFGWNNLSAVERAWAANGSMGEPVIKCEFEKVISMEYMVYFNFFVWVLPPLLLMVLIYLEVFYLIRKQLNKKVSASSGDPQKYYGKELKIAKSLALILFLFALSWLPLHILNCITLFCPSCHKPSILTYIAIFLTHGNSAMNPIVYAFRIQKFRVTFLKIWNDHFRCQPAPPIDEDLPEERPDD
# test-name: Allosteric enhancement of human adenosine A1 receptor expressed in CHO cells assessed as inhibition of forskolin-induced cAMP production at 10 uM after 10 mins
# Format: functional, cell-based
Criterion: inhibition meeting or surpassing 30%. Met: 1. Not met: -1.

As a guide, the following entries are already answered.
Record CN(Cc1c(-c2ccccc2)sc(N)c1C(=O)c1ccc(Cl)cc1)C(C)(C)C ; criterion: inhibition no lower than 30%. Met?
-1

Record CCCN(CCC)Cc1csc(N)c1C(=O)c1ccc(Cl)cc1 ; criterion: inhibition no lower than 30%. Met?
-1

More entries:
Record Nc1scc(CN2CCC3(CC2)Oc2cccc(F)c2O3)c1C(=O)c1ccc(Cl)cc1 ; criterion: inhibition no lower than 30%. Met?
1

Record Nc1sc(-c2ccccc2)c(CN2CCCCC2)c1C(=O)c1ccc(Cl)cc1 ; criterion: inhibition no lower than 30%. Met?
-1

Record CN(Cc1csc(N)c1C(=O)c1ccc(Cl)cc1)c1ccc(C(F)(F)F)cc1 ; criterion: inhibition no lower than 30%. Met?
-1

Record Cc1ccc2c(c1)OC1(CCN(Cc3csc(N)c3C(=O)c3ccc(Cl)cc3)CC1)O2 ; criterion: inhibition no lower than 30%. Met?
1

Record CCCN(CCC)Cc1c(-c2ccccc2)sc(N)c1C(=O)c1ccc(Cl)cc1 ; criterion: inhibition no lower than 30%. Met?
-1

Record CN(C)Cc1c(-c2ccccc2)sc(N)c1C(=O)c1ccc(Cl)cc1 ; criterion: inhibition no lower than 30%. Met?
-1

Record CN(Cc1csc(N)c1C(=O)c1ccc(Cl)cc1)c1ccccc1 ; criterion: inhibition no lower than 30%. Met?
-1

----------
# target-entity: Adenosine receptor A1 (Homo sapiens)
# test-name: Allosteric enhancement of human adenosine A1 receptor expressed in CHO cells assessed as increase of [3H]CCPA Bmax at 10 uM after 90 mins
# Format: cell-based
experimental-readout: fold change (FC)
Numbers only.

Report the value of fold change (FC) obtained on Adenosine receptor A1 (Homo sapiens) for Nc1scc(CN2CCc3[nH]c4ccc(Cl)cc4c3C2)c1C(=O)c1ccc(Cl)cc1 .
1.2

Report the value of fold change (FC) obtained on Adenosine receptor A1 (Homo sapiens) for CCCN(CCC)Cc1csc(N)c1C(=O)c1ccc(Cl)cc1 .
1.2

// for each molecule below, give its fold change (FC)
1. Cc1ccc2c(c1)CC1CN(Cc3csc(N)c3C(=O)c3ccc(Cl)cc3)CCN21 (stereo not drawn)
2. CCN(Cc1csc(N)c1C(=O)c1ccc(Cl)cc1)c1ccccc1
3. C=CCN(CC=C)Cc1c(Br)sc(N)c1C(=O)c1ccc(Cl)cc1
4. Nc1scc(CSc2ccccc2)c1C(=O)c1ccc(Cl)cc1
5. Nc1scc(COc2ccccc2)c1C(=O)c1ccc(Cl)cc1
6. CN(Cc1c(-c2ccccc2)sc(N)c1C(=O)c1ccc(Cl)cc1)C(C)(C)C
7. Nc1scc(CN2CCc3ccccc3C2)c1C(=O)c1ccc(Cl)cc1

1
2.3
1.2
2.2
1.3
1.3
4.6

// for each molecule below, give its fold change (FC)
1. Cc1sc(N)c(C(=O)c2cccc(C(F)(F)F)c2)c1C
2. Nc1scc(CN2CCN3c4ccc(Cl)cc4CC3C2)c1C(=O)c1ccc(Cl)cc1 (stereo not drawn)
3. CN(C)Cc1c(-c2ccccc2)sc(N)c1C(=O)c1ccc(Cl)cc1
4. Nc1scc(COc2ccc(F)cc2)c1C(=O)c1ccc(Cl)cc1
5. CC(C)N(Cc1c(Br)sc(N)c1C(=O)c1ccc(Cl)cc1)C(C)C
6. CCN(CC)Cc1c(-c2ccccc2)sc(N)c1C(=O)c1ccc(Cl)cc1
7. Nc1scc(CN2CCC3(CC2)Oc2ccccc2O3)c1C(=O)c1ccc(Cl)cc1
8. Nc1scc(CN2CCN3c4ccccc4CC3C2)c1C(=O)c1ccc(Cl)cc1 (stereo not drawn)

1: 1.3; 2: 1.2; 3: 1.1; 4: 1.2; 5: 1.5; 6: 2.8; 7: 5.1; 8: 8.1
